# TEST DESCRIPTION: Lipophilicity, logP of the compound
# Assay type: physicochemical
# CONDITION: octanol/water
Reported logP values follow for various molecules
Please state the value as a number alone, without comment.

MOLECULE | logP
Cc1cc2ncnn2cc1Nc1ncc2c(n1)n(C1CCOCC1)c(=O)n2C | 1.2

Shifting focus to the molecule that follows.
Could you tell me which logP is on file for `Cc1cc2ncnn2cc1Nc1ncc2c(n1)N(C1CCOCC1)CC(=O)N2C` ?
1.28

* * *

# TEST DESCRIPTION: in vitro
# CONDITION: human, Caco-2
# Description: Efflux ratio of apparent permeability across basolateral to apical side over apical to basolateral side in human Caco-2 cells
ASSAY METRIC: efflux ratio
Please state the value as a number alone, without comment.

Could you tell me which efflux ratio is on file for `Cc1cc2ncnn2cc1Nc1ncc2c(n1)N(C1CCOCC1)CC(=O)N2C` ?
4.84
